Exercise: for every item that follows, state its recorded Tm.
- reported-conditions: Escherichia coli (strain K12); pH 7.5; Thermal; Intensity; HEPES 20mM; transition: 2; whole UniProt chain shown
Kindly answer with a numeric value in °C, unit omitted.

protein Protein GrpE wild type, P09372 (protein) MSSKEQKTPEGQAPEEIIMDQHEEIEAVEPEASAEQVDPRDEKVANLEAQLAEAQTRERDGILRVKAEMENLRRRTELDIEKAHKFALEKFINELLPVIDSLDRALEVADKANPDMSAMVEGIELTLKSMLDVVRKFGVEVIAETNVPLDPNVHQAIAMVESDDVAPGNVLGIMQKGYTLNGRTIRAAMVTVAKAKA , Tm observed: 44

protein Ribosomal small subunit pseudouridine synthase A wild type, P0AA43 (protein) MRLDKFIAQQLGVSRAIAGREIRGNRVTVDGEIVRNAAFKLLPEHDVAYDGNPLAQQHGPRYFMLNKPQGYVCSTDDPDHPTVLYFLDEPVAWKLHAAGRLDIDTTGLVLMTDDGQWSHRITSPRHHCEKTYLVTLESPVADDTAEQFAKGVQLHNEKDLTKPAVLEVITPTQVRLTISEGRYHQVKRMFAAVGNHVVELHRERIGGITLDADLAPGEYRPLTEEEIASVV , Tm observed: 45

protein UTP--glucose-1-phosphate uridylyltransferase wild type, P0AEP3 (protein) MAAINTKVKKAVIPVAGLGTRMLPATKAIPKEMLPLVDKPLIQYVVNECIAAGITEIVLVTHSSKNSIENHFDTSFELEAMLEKRVKRQLLDEVQSICPPHVTIMQVRQGLAKGLGHAVLCAHPVVGDEPVAVILPDVILDEYESDLSQDNLAEMIRRFDETGHSQIMVEPVADVTAYGVVDCKGVELAPGESVPMVGVVEKPKADVAPSNLAIVGRYVLSADIWPLLAKTPPGAGDEIQLTDAIDMLIEKETVEAYHMKGKSHDCGNKLGYMQAFVEYGIRHNTLGTEFKAWLEEEMGIKK , Tm observed: 45.6

Cited source: FireProtDB (doi:10.1126/science.aai7825)
